Experiment: Body weight of S180 sarcoma-bearing mice
Details: mouse, in vivo, iv
REPORTED_ENDPOINT: body Weight (g) Before ad.
Numeric only. Scale: g

Task item: Param item = COC(=O)/C(C)=C\CC12OC(C)(C)C3CC(C1=O)C(N1CCOCC1)C1C(=O)c4c(OC(=O)CCl)c5c(c(CC=C(C)C)c4OC132)OC(C)(CCC=C(C)C)C=C5 (stereo not drawn) ; retrieve measured body Weight (g) Before ad..
Reply: 21.76

Task item: Param item = O=c1[nH]cc(F)c(=O)[nH]1 [Compound 5-FU, 5-fluorouracil, reference compound] ; retrieve measured body Weight (g) Before ad..
Reply: 22.59

Task item: Param item = COC(=O)/C(C)=C\CC12OC(C)(C)C3CC(C1=O)C1C4=C(Nc5nccn51)c1c(O[C@H]5O[C@@H](CO)[C@H](O)[C@@H](O)[C@@H]5O)c5c(c(CC=C(C)C)c1OC432)OC(C)(CCC=C(C)C)C=C5 (stereo partly drawn) ; retrieve measured body Weight (g) Before ad..
Reply: 20.71

----------
I'd be grateful if you could share measured IC50 for these entries.
Test system: human colorectal cancer cell line HT29
Assay: In vitro anti-cancer cell experiment (MTT), HT29
Format: cell-based
Conditions: Homo sapiens, HT-29; HT29 cells, 48 hours, MTT; read-out: IC50 HT29
Numeric only. Scale: µg/mL

Task item: Param item = COC(=O)/C(C)=C\CC12OC(C)(C)C3CC(C1=O)C1C4=C(Nc5nccn51)c1c(O)c5c(c(CC=C(C)C)c1OC432)OC(C)(CCC=C(C)C)C=C5 (stereo not drawn) [Compound 9] ; retrieve measured IC50.
Reply: 1.03

Task item: Param item = COC(=O)/C(C)=C\CC12OC(C)(C)[C@H]3C[C@@H](C=C4C(=O)c5c(OC(=O)c6ccc(O[C@@H]7O[C@@H]8COC(C)(C)O[C@H]8[C@H](O)[C@H]7O)cc6)c6c(c(CC=C(C)C)c5OC431)OC(C)(CCC=C(C)C)C=C6)C2=O (stereo partly drawn) [Compound 5] ; retrieve measured IC50.
Reply: 35.6

Task item: Param item = O=c1[nH]cc(F)c(=O)[nH]1 [Compound 5-FU, 5-fluorouracil, reference compound] ; retrieve measured IC50.
Reply: 14.4

Task item: Param item = COC(=O)/C(C)=C\CC12OC(C)(C)C3CC(C1=O)C1C4=C(c5ccccc5C4=O)N(CCN)C4=C1C32Oc1c(CC=C(C)C)c2c(c(O)c14)C=CC(C)(CCC=C(C)C)O2 (stereo not drawn) [Compound 22] ; retrieve measured IC50.
Reply: 3.62

Task item: Param item = COC(=O)/C(C)=C\CC12OC(C)(C)C3CC(C1=O)C1C4=C(Nc5nc6ccccc6n51)c1c(O)c5c(c(CC=C(C)C)c1OC432)OC(C)(CCC=C(C)C)C=C5 (stereo not drawn) [Compound 10] ; retrieve measured IC50.
Reply: 38.3

Task item: Param item = COC(=O)/C(C)=C\CC12OC(C)(C)C3CC(C1=O)C1C4=C(Nc5nccn51)c1c(O[C@H]5O[C@@H](CO)[C@H](O)[C@@H](O)[C@@H]5O)c5c(c(CC=C(C)C)c1OC432)OC(C)(CCC=C(C)C)C=C5 (stereo partly drawn) [Compound 24] ; retrieve measured IC50.
Reply: 54.1
